From: patent US20260139048A1

# SUBJECT OF TEST: T1, His-tagged human TIGIT (human, UniProt Q495A1 22-141)
# T1 construct: SPR analyte; also called human TIGIT protein; not shown: His tag
# T1 sequence: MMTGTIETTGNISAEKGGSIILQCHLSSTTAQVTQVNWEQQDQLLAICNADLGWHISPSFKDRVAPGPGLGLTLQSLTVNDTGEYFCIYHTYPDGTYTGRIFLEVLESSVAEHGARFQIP
# MEASUREMENT PROTOCOL: SPR experiment 2, IgG from HEK293 supernatant captured
MEASUREMENT LABEL: kon (M⁻¹ s⁻¹)
Give the quantity in M⁻¹ s⁻¹, number only.

Exercise: Could you tell me which kon is on file for TIGIT-19 chimeric antibody (antibody, human IgG1, kappa, V domains shown, also called 19VH + 19VL) VH: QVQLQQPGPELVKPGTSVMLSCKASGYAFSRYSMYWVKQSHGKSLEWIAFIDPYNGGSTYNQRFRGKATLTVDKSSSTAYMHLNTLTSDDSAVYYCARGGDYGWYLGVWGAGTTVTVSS VL: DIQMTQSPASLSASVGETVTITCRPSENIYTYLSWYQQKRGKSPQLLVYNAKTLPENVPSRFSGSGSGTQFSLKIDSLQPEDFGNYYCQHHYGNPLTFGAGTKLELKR ?
Key: 1.2e+06
